Test: RP-HPLC temperature profiling (hydrophobicity and self-association/dimerization parameter PA)
Type: physicochemical
Settings: RP-HPLC retention time at 80° C. during temperature profiling
Description: The retention time data for the peptides is shown in Table 5 which records retention times at 5° C., the maximal retention times and retention times at 80° C. during the temperature profiling. […] The ability of the D-peptides to self-associate was determined by RP-HPLC temperature profiling. […]
Square brackets hold non-standard residues; d marks the D form. Ends that are not written are not given here.
Provide the recorded tR (min) 80° C. for the entries that follow.
Provide the reading as a plain figure in min.

What value of tR (min) 80° C. has been reported for the following substance? Ac-KWKSFLKTFKSASKTVLHTALKAISS-NH2 [NSL] 37.62

Also need Ac-KWKSFLKTFKSAGKTVLHTALKAISS-NH2 [NG] , thanks. 36.74

What about this substance? PLL: V681 analog with L-Leu at position 11 (polar face) (KWKSFLKTFKLAVKTVLHTALKAISS) 47.51

Input NLD: V681 analog with D-Leu at position 13 (non-polar face) (KWKSFLKTFKSA[dL]KTVLHTALKAISS-NH2; not fully specified) 43.03

Next up: PKL: V681 analog with L-Lys at position 11 (polar face) (KWKSFLKTFKKAVKTVLHTALKAISS) 43.89

Repeat for the following substance: Ac-KWKSFLKTFKVAVKTVLHTALKAISS-NH2 [PVL] 46.18

And Ac-ELEKGGLEGEKGGKELEK-amide (Ac-ELEKGGLEGEKGGKELEK-NH2) [peptide C, reference compound] ? 18.64

Try the substance PAL: V681 analog with L-Ala at position 11 (polar face) (KWKSFLKTFKAAVKTVLHTALKAISS) 46.63

Another substance: Ac-KWKSFLKTFKSALKTVLHTALKAISS-NH2 [NLL] 47.02

All figures here come from patent US8252737B2.
